- METHOD_NOTES: Half life in C57BL/6 mouse pneumonia model at 60 mg/kg, im
- Type: ADME, organism-based
- Parameters: dose 60 mg/kg, route intramuscular
- RECORDED_CONDITIONS: in vivo
READOUT_KIND: half-life (min)
Lab book: enter the figure in min, no units written.

Given the compound CC1(C)[C@H](C(=O)O)N2C(=O)C[C@H]2S1(=O)=O , write its reported half-life. 21

----------
- METHOD_NOTES: Half life in New Zealand rabbit meningitis model at 120 mg/kg, im
- Format: ADME, organism-based, Oryctolagus cuniculus
- Set-up: dose 120 mg/kg, route intramuscular
- RECORDED_CONDITIONS: in vivo
READOUT_KIND: half-life (h)
Lab book: enter the figure in h, no units written.

Given the compound C[C@@H](O)[C@H]1C(=O)N2C(C(=O)O)=C(SCCN=CN)C[C@H]12 [IMIPENEM ANHYDROUS] , write its reported half-life. 1.74
